Method description: Bioavailability Test (rat pharmacokinetics)
Format: in vivo
Settings: male, Sprague-Dawley, in vivo, IV 3 mg/kg, 0.9% saline
Quantity: log10(half-life) (log10 of the value in h)
Friendly reminder: values = log10 of half-life, unit h.

# example entries with known answers
INSERT INTO assay_data (compound, quantitative_readout) VALUES
  ('Cl.NC12CC(c3nc(C(F)(F)F)cs3)(C1)C2 [Compound 1]', 0.49),
  ('Cl.O=C(O)CNC12CC(C(F)(F)F)(C1)C2 [Compound 6]', -0.82),
  ('O=C(CO)NC12CC(C(F)(F)F)(C1)C2 [Compound 7]', 0.36),
  ('Cc1sc(C23CC(N)(C2)C3)nc1C(F)(F)F.Cl [Compound 2]', 0.43);

Attention now shifts to the item below.
The compound Cl.NC12CC(c3cccc(C(F)(F)F)n3)(C1)C2 [Compound 13] showed log10(half-life) equal to 0.98

---

Method description: Bioavailability Test (rat pharmacokinetics)
Type: in vivo
Settings: male, Sprague-Dawley, in vivo, IV 3 mg/kg, DMSO, PEG400, and 30% HPβCD (5/20/75)
Counter-ions that a name gives are not always drawn.
Quantity: half-life (min)
Unit min implied. Number only.

The compound CC(F)(F)c1csc(C23CC(N)(C2)C3)n1 [Compound 25, hydrochloride] showed half-life equal to 222

---

Method description: Bioavailability Test (rat pharmacokinetics)
Format: in vivo
Settings: PO 30 mg/kg vs IV 3 mg/kg
Quantity: F (%)
Unit % implied. Number only.

INSERT INTO measurements (molecule, quantitative_readout) VALUES
  ('O=C(CO)NC12CC(C(F)(F)F)(C1)C2 [Compound 7]', 138),
  ('Cl.NC12CC(c3cccc(C(F)(F)F)n3)(C1)C2 [Compound 13]', 16),
  ('Cl.O=C(O)CNC12CC(C(F)(F)F)(C1)C2 [Compound 6]', 134),
  ('Cc1sc(C23CC(N)(C2)C3)nc1C(F)(F)F.Cl [Compound 2]', 79);

Attention now shifts to the item below.
The molecule Cl.NC12CC(c3nc(C(F)(F)F)cs3)(C1)C2 [Compound 1] showed F equal to 115

---

Items are presented alongside their recorded log10 AUC(0-inf).
Method description: Bioavailability Test (rat pharmacokinetics)
Format: in vivo
Settings: male, Sprague-Dawley, in vivo, IV 3 mg/kg, 0.9% saline
Friendly reminder: values = log10 of AUC(0-inf), unit µM·h.

# example entries with known answers
INSERT INTO assay_data (compound, quantity, quantitative_readout) VALUES
  ('Cl.O=C(O)CNC12CC(C(F)(F)F)(C1)C2 [Compound 6]', 'log10 AUC(0-inf)', 0.26),
  ('Cl.NC12CC(c3cccc(C(F)(F)F)n3)(C1)C2 [Compound 13]', 'log10 AUC(0-inf)', 0.48),
  ('Cc1sc(C23CC(N)(C2)C3)nc1C(F)(F)F.Cl [Compound 2]', 'log10 AUC(0-inf)', 0.60),
  ('Cl.NC12CC(c3nc(C(F)(F)F)cs3)(C1)C2 [Compound 1]', 'log10 AUC(0-inf)', 1.28);

Attention now shifts to the item below.
The compound O=C(CO)NC12CC(C(F)(F)F)(C1)C2 [Compound 7] showed log10 AUC(0-inf) equal to 0.95
